Target: Recombinant (1-346) HPK1 (h) (Homo sapiens, UniProt Q92918)
Construct: Recombinant (1-346) HPK1 (h) is incubated with 8 mM MOPS pH 7.0
Sequence (Q92918 1-346): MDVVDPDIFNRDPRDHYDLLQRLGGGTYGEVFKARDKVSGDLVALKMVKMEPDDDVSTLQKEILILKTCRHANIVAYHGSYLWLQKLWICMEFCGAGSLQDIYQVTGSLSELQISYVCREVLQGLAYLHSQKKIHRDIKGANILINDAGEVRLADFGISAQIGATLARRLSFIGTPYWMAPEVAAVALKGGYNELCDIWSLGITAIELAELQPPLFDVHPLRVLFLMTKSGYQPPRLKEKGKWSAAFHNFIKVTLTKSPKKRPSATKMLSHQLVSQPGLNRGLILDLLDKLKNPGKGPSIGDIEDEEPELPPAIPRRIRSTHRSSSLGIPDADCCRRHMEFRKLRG
Assay: HPK1 human STE kinase enzymatic radiometric assay
Format: biochemical
Settings: read-out: HPK1 IC50 nM Range
Would you kindly list IC50 for each of these compounds?

Quick batch: IC50 for everything below.
1. Cc1c[nH]c(=O)c2ccc(-c3nc(-c4cc(F)c(N5CCOCC5)c(CN(C)C)c4)c(F)nc3N)cc12
2. CO[C@@H]1CCN(Cc2cc(-c3nc(-c4cc5c(cc4F)C(=O)NCC5)c(N)nc3F)ccc2N2CCOCC2)C1
3. CN(C)Cc1cc(-c2nc(-c3ccc4c(=O)[nH]cc(F)c4c3)c(N)nc2F)ccc1F
4. Nc1nc(F)c(-c2ccc(N3CCN(C4COC4)CC3)cc2)nc1-c1cc(F)c2c(c1)CCNC2=O
5. C[C@H]1CN(c2ccc(-c3nc(-c4cc(F)c5c(c4)CCNC5=O)c(N)nc3F)cc2CN2CCC2)CCO1

Out:
1: 0.1 to 10 nM; 2: 0.1 to 10 nM; 3: 11 to 100 nM; 4: 0.1 to 10 nM; 5: 11 to 100 nM

Quick batch: IC50 for everything below.
1. COc1ccc(-c2nc(-c3ccc4c(c3)CCNC4=O)c(N)nc2F)cc1C#N
2. COc1ccc(-c2nc(-c3ccc4c(c3)CCNC4=O)c(N)nc2F)cc1C(C)N(C)C (stereo not shown)

Out:
1: 11 to 100 nM; 2: 0.1 to 10 nM

* * *

Molecular target: Recombinant (1-346) HPK1 (h) (Homo sapiens, UniProt Q92918)
Construct: Recombinant (1-346) HPK1 (h) is incubated with 8 mM MOPS pH 7.0
Assay: HPK1 human STE kinase enzymatic radiometric assay
Format: biochemical
Conditions: read-out: HPK1 IC50 nM Range
MEASURED PARAMETER: IC50

Reference set (5 entries):
[[record]]
smiles_structure = "Cc1[nH]c(=O)c2c(F)cc(-c3nc(-c4ccc(N5CCN(CC6CC6)CC5)cc4)c(F)nc3N)cc2c1F"
endpoint_value = "0.1 to 10 nM"

[[record]]
smiles_structure = "CN(C)Cc1cc(-c2nc(-c3cc4c(cc3F)C(=O)NCC4)c(N)nc2F)ccc1OCC1CCOCC1"
endpoint_value = "0.1 to 10 nM"

[[record]]
smiles_structure = "Nc1nc(F)c(-c2ccc(N3CCOCC3)c(CN3CCC3)c2)nc1-c1cc2c(cc1F)C(=O)NCC2"
endpoint_value = "0.1 to 10 nM"

[[record]]
smiles_structure = "CC(C)S(=O)(=O)c1ccc(-c2nc(-c3ccc4c(=O)[nH]cc(F)c4c3)c(N)nc2F)cc1CN(C)C"
endpoint_value = "11 to 100 nM"

[[record]]
smiles_structure = "CCN1CCN(c2ccc(-c3nc(-c4ccc5c(=O)[nH]ccc5c4)c(N)nc3F)cc2)CC1"
endpoint_value = "0.1 to 10 nM"


Quick batch: IC50 for everything below.
1. Cc1c[nH]c(=O)c2ccc(-c3nc(-c4ccc([C@]56C[C@H]5CN(C)C6)cc4)c(F)nc3N)cc12
2. C[C@@H]1CN(c2ccc(-c3nc(-c4ccc5c(c4)C(F)(F)CNC5=O)c(N)nc3F)cc2CN(C)C)C[C@H](C)O1

Out:
["11 to 100 nM", "0.1 to 10 nM"]
